# System: MS2 coat protein
# TEST DETAILS: apparent KD of MS2 coat protein; designed switch direction (-1 OFF switch, 1 ON switch): -1; higher = weaker reporter binding
# RECORDED CONDITIONS: input ligand: microRNA oligo, concentration not stated
Items are presented alongside their recorded apparent KD of MS2 coat protein.
ENDPOINT: apparent KD of MS2 coat protein (nM)

[[record]]
sequence_text = "ACAUGAGGAUCACCCAUGUGCACGUAAUGGCUCAUGUAGAGUCAGGAUAUGCGUGGCGAACUCGCGCAGAAGGGACAAGACUGG [Deportation 20 - Jieux - Exclusion NG 3] (Eterna round: R96, puzzle: Exclusion NG 3)"
endpoint = "apparent KD of MS2 coat protein"
unit_abbreviation = "nM"
recorded_value = 25.6

[[record]]
sequence_text = "AUUAUAUAGAUAGGAUAUUGAUUAUUAUUUUAACAUGAGGAUCACCCAUGUAGCCUUAUGUAUAACAAGAAGGAUCAUUUAUUA [Title] (Eterna round: R96, puzzle: Exclusion NG 2)"
endpoint = "apparent KD of MS2 coat protein"
unit_abbreviation = "nM"
recorded_value = 137

[[record]]
sequence_text = "AACCUGAGGCAAAGCUUUAGGUGUACAUGAGGAUCACCCAUGUAGGAUAUGGUAGGCAAAGCUUACCAGAAGGACAUUAUGAUG [Mat - Exclusion NG 3 - Mod of JL - D51] (Eterna round: R96, puzzle: Exclusion NG 3)"
endpoint = "apparent KD of MS2 coat protein"
unit_abbreviation = "nM"
recorded_value = 49.5

[[record]]
sequence_text = "GCAGCAUAGAUUACUAGCUGUUACAUGAGGAUCACCCAUGUUCAGGAUAUGGUCUGGAUUACAGGCCAGAAGGGAACAAGCUGC [finally!] (Eterna round: R96, puzzle: Exclusion NG 3)"
endpoint = "apparent KD of MS2 coat protein"
unit_abbreviation = "nM"
recorded_value = 12.9

[[record]]
sequence_text = "UUAAUUAGCUCGCUAGAUCCUCACAUGAGGAUCACCCAUGUGCAGGAUAUCAGCUCGUGUAGAGCUGAGAAGGGCACUGCGAGC [ExNG3/10-A3] (Eterna round: R96, puzzle: Exclusion NG 3)"
endpoint = "apparent KD of MS2 coat protein"
unit_abbreviation = "nM"
recorded_value = 88.2

[[record]]
sequence_text = "CGAUAAAGCUGAGGAUAUGAGAAUAGAAAGAAAUCAGAAGGCAGACAUGAGGAUCACCCAUGUGAGUUCUCGAGAUUACAUGGU [Prohibition 46 - Jieux - Exclusion NG 1] (Eterna round: R96, puzzle: Exclusion NG 1)"
endpoint = "apparent KD of MS2 coat protein"
unit_abbreviation = "nM"
recorded_value = 112

[[record]]
sequence_text = "AUAAUUAAUCGAGGAUAUCAGCACGAUUAGUGCUGAGAAGGCGACAUGAGGAUCACCCAUGUGAUCAAUUAAUAUUAAUAUUAU [ENG1/11-C1] (Eterna round: R96, puzzle: Exclusion NG 1)"
endpoint = "apparent KD of MS2 coat protein"
unit_abbreviation = "nM"
recorded_value = 626

[[record]]
sequence_text = "GCCGGUCAUGUAGGAUAUGGCCGGCGGUGCCGGCCAGAAGGACAUGAGGAUCACCCAUGUGCCGGCCUUUGGCCGGCGCCCGGC (Eterna round: R96, puzzle: Exclusion NG 1)"
endpoint = "apparent KD of MS2 coat protein"
unit_abbreviation = "nM"
recorded_value = 11.2

[[record]]
sequence_text = "CUGUUCCAUGUAGGAUAUGCAUAUUCUCAUUAUGCAGAAGGACAUGAGGAUCACCCAUGUAUGUUAUUAUCAUAUGUUACAUGU [Design 4] (Eterna round: R96, puzzle: Exclusion NG 1)"
endpoint = "apparent KD of MS2 coat protein"
unit_abbreviation = "nM"
recorded_value = 27.2

[[record]]
sequence_text = "UUUGUUUUGCAAGGAUAUGUUUAAUUUUAUUUUCCUUACACAUGAGGAUCACCCAUGUUAUUCUUACAGAAGGUGCGUAAUUUG [Excl-NG2-LRO05] (Eterna round: R96, puzzle: Exclusion NG 2)"
endpoint = "apparent KD of MS2 coat protein"
unit_abbreviation = "nM"
recorded_value = 171

[[record]]
sequence_text = "GCAUGCUAUGUCAGGAUAUACCUGUGGAUACAUAGGUAGAAGGGACAUGAGGAUCACCCAUGUCCUAAUCAUGC [Fiskers BMX 4 - 24] (Eterna round: R96, puzzle: Brourd's mod of Exclusion 4)"
endpoint = "apparent KD of MS2 coat protein"
unit_abbreviation = "nM"
recorded_value = 10

[[record]]
sequence_text = "AUUAUAAAGUCAGGAUAUCGGUUUAUAAUAUUACGAGAAGGGACAUGAGGAUCACCCAUGUAUUAACACUACUAUGUCAACUAA [1st Attempt] (Eterna round: R96, puzzle: Exclusion NG 1)"
endpoint = "apparent KD of MS2 coat protein"
unit_abbreviation = "nM"
recorded_value = 33.3

[[record]]
sequence_text = "UUGUUUGUAGUGAGGAUAUCGUUGAGGAAGAGGAUCGAGAAGGCACAUGAGGAUCACCCAUGUUAGAUGUGGUU [JR_BMOE4_Sub082] (Eterna round: R96, puzzle: Brourd's mod of Exclusion 4)"
endpoint = "apparent KD of MS2 coat protein"
unit_abbreviation = "nM"
recorded_value = 114

[[record]]
sequence_text = "CUGAUGUGAGGAUAUGUGAUCUGCCUUCUAUGUAGAUGAUCACAGAAGGCACAUGAGGAUCACCCAUGUAGAUC [Ex4 - 3 - 26] (Eterna round: R96, puzzle: Exclusion 4)"
endpoint = "apparent KD of MS2 coat protein"
unit_abbreviation = "nM"
recorded_value = 57.3

[[record]]
sequence_text = "AGCGCCAUCGUGAGAUGGCGUAUUACAUGAGGAUCACCCAUGUAGGAUAUCGAUUGCUUUGCAGUCGAGAAGGACAUGUUCUAG [JL ENG3 3.80 Mod A] (Eterna round: R96, puzzle: Exclusion NG 3)"
endpoint = "apparent KD of MS2 coat protein"
unit_abbreviation = "nM"
recorded_value = 35.9

[[record]]
sequence_text = "ACAUGAGGAUCACCCAUGUAAUGAUGGGUACUAUAUUAUUCGUAGGAUAUCGUUGUUAGUUUGUUCGAGAAGGACGUUUGCCUU [JR_ExcNG3_Sub055] (Eterna round: R96, puzzle: Exclusion NG 3)"
endpoint = "apparent KD of MS2 coat protein"
unit_abbreviation = "nM"
recorded_value = 824

[[record]]
sequence_text = "UUGUAGUUUGUAGGAUAUGGUUAUGUAUGUAAUCUAGAAGGACAUGAGGAUCACCCAUGUGGAGGUAAGUUGGGAAGAAGUAAU [random1] (Eterna round: R96, puzzle: Exclusion NG 1)"
endpoint = "apparent KD of MS2 coat protein"
unit_abbreviation = "nM"
recorded_value = 30.8

[[record]]
sequence_text = "AUGGGUCCUCUCGGAGCGACAUGAGGAUCACCCAUGUGUGUUGAGGAUAUCCACUGCUAAGGACGGGAGAAGGCAGUGUACUGU [Ex NG3 #85] (Eterna round: R96, puzzle: Exclusion NG 3)"
endpoint = "apparent KD of MS2 coat protein"
unit_abbreviation = "nM"
recorded_value = 23.5

